Target: Adrenergic receptor alpha-1 (Rattus norvegicus, UniProt P15823+P23944+P43140)
Sequence (P15823 whole entry): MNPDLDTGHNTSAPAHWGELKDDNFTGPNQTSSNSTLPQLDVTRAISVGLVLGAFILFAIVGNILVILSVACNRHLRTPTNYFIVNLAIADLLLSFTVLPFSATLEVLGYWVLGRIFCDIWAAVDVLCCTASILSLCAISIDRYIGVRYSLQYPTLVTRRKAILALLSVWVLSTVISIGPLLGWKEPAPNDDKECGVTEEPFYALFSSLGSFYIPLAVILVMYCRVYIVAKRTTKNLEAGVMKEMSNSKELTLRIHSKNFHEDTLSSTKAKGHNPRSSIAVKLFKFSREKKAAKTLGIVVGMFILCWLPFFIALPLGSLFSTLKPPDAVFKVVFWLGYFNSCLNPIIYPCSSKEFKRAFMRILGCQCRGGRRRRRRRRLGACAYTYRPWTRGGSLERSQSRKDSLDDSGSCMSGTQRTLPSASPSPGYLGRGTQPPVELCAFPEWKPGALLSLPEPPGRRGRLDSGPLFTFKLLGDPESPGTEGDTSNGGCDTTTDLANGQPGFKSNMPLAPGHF
Sequence (P23944 whole entry): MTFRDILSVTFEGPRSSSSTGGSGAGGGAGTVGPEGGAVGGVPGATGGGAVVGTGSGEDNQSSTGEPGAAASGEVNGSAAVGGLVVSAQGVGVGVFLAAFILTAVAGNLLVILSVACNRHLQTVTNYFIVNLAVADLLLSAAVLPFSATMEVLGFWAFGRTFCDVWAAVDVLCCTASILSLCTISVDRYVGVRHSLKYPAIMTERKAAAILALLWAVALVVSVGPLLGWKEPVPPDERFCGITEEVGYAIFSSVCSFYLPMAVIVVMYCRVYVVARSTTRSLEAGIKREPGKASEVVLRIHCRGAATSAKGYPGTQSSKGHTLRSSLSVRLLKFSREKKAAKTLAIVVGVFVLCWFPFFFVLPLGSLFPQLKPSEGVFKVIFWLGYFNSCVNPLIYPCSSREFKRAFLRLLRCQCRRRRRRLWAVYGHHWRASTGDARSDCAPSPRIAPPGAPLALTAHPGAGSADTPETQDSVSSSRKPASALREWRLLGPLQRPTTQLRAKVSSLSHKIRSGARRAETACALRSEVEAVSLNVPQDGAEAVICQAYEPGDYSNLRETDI
Sequence (P43140 whole entry): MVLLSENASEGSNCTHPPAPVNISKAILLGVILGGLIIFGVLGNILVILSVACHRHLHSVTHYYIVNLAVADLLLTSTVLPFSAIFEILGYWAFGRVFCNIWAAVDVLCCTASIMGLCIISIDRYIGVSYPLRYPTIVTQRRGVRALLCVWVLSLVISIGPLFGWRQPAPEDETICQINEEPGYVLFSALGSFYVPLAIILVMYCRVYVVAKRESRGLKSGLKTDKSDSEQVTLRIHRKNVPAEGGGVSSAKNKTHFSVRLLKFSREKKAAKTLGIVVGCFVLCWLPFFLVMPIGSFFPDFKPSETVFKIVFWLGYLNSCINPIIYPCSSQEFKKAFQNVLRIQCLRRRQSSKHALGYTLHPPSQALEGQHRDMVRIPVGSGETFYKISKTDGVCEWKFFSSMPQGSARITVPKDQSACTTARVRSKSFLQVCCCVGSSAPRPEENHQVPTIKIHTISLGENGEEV
Experiment: Displacement of [3H]prazosin from adrenergic alpha-1 receptor in rat brain membranes
Format: cell membranes
observable: IC50 (µM)

1) CCOCCn1cc(C2CCN(CCOc3ccc(C(=O)O)cc3)CC2)c2ccccc21	3
2) CCOCCn1cc(C2CCN(CCOc3ccccc3C(=O)O)CC2)c2ccc(F)cc21	10

All figures here come from ChEMBL document CHEMBL1149258.
